Value source: ChEMBL document CHEMBL1201862

tested on: HOP-18; assay: NCI tumour cell line growth inhibition, 48 h
Calls of active or inactive are those of the source. Cut-off read from the data, not from the text of the source: active = GI50 up to about 1.1 µM and inactive = higher.
Outcomes: 1 for active, -1 for inactive

| compound | discrete_label |
| --- | --- |
| O=C(/C=C/c1ccco1)c1ccc(NCc2nc3ccccc3[nH]2)cc1 | -1 |
| CC1(C)OCC([C@H]2CC23SCCCS3)O1 (stereo partly drawn) | -1 |
| CC1(C)CC(=O)C(C(=O)Nc2cccs2)=C(O)C1 | -1 |
| CCOC(=O)CC(C)C1(C=O)CCCCC1=O (stereo not drawn) | -1 |
| COc1ccc(/C=C2\CCC(Cc3ccccc3)(CN(C)C)C2=O)cc1 (stereo not drawn) | -1 |
| COCCOCOC(C)(C)[C@H](CCOC(C)=O)O[Si](c1ccccc1)(c1ccccc1)C(C)(C)C | -1 |
| CC(=O)OC1CCC2(C)C3CCC4(C)C(c5ccc(=O)oc5)CC5OC54C3CCC2(O)C1 (stereo not drawn) | 1 |
| CCOC(=O)N1CCN(P(=O)(Nc2ccc3[nH]c(NC(=O)OC)nc3c2)Oc2ccccc2)CC1 (stereo not drawn) | -1 |
| Cn1ccnc1CCc1ccc(Cl)cc1Cl | -1 |
| Cc1nc2c3c(ccc2nc1O)C(=O)c1ccccc1C3=O | -1 |
| C/C(=N\NC(N)=S)c1ccc(C2CCCCC2)cc1 | -1 |
| O=C(CCc1nnc2s/c(=C\c3ccc(Cl)c(Cl)c3)c(=O)n12)Nc1ccc(Cl)c(Cl)c1 | -1 |
| O=C1C(Cl)C(c2ccccc2)N1n1cnc2ccccc2c1=O (stereo not drawn) | -1 |
| CCCCCCCCCCCCCCCCCCN(C)C(COC)COP(=O)([O-])OCC[N+](C)(C)C (stereo not drawn) | -1 |
| Nn1c(-c2cccc(Cl)c2)nc2ccccc2c1=O | -1 |
| O=[PH](O)c1cc2c3ccccc3ccc2c2ccccc12 | -1 |
| CN1C(=O)C(=CN)C(=O)N(C)C1=O | -1 |
| COC(=O)C1=NC(=S)NC(c2ccccc2)C1c1nc2ccccc2s1 (stereo not drawn) | -1 |
| COc1ccc(/C(Cl)=C(\C=O)c2ccc(F)cc2)cc1OC | -1 |
| CCCCNCC(=O)O[C@]1(CC)C(=O)OCc2c1cc1n(c2=O)Cc2cc3ccccc3nc2-1 | 1 |
| N#CC(/C(CCC(=O)Nc1ccc(Cl)cc1)=N/NC(=O)c1cc2ccccc2cc1O)c1ccccc1 (stereo not drawn) | -1 |
| CC(=O)O[C@H]1CCC2[C@@H]3CCC4Nc5[nH]ncc5C[C@]4(C)C3CC[C@@]21C (stereo partly drawn) | -1 |
| CC/C(C)=C1\CCC(CN(C)C)C1=O (stereo not drawn) | -1 |
| COc1ccc2nc(-c3ccc(O)cc3)ccc2c1 | -1 |
| COc1ccc(NC(=O)CC/C(CC(=O)c2ccco2)=N/NC(N)=S)cc1 | -1 |
| COc1ccc(CN2C(=O)[C@@H]3Cc4c(OC)c(C)c(OC)c(OC)c4[C@H](/C2=C\c2cc(OC)c(OC)c(C)c2OC)N3C(=O)OC(C)C)cc1 | -1 |
| O=C(/C=C/c1ccccc1Cl)c1ccc(Cl)c(Cl)c1 | -1 |
| CC(=O)O[C@H]1[C@@H]2[C@@H]3[C@@H](C[C@H]1C)[C@@H](C)CO[C@@]1(C)CC/C=C(/C)C[C@@H]2O[C@@H]31 | -1 |
